Molecular target: MS2 coat protein, dlFG mutant (Escherichia phage MS2, UniProt P03612, del68-81insG)
Test: 4 mM Mg2+; no ligand; RNA-MaP array; 100 mM Tris-HCl pH 7.5, 80 mM KCl, 4 mM MgCl2, 0.1 mg/mL BSA, 1 mM DTT, 0.01 mg/mL yeast tRNA, 0.01% Tween-20; protein 1.5 nM to 3 uM; 37 C (Table S3)
Details: chain copies: 2; label: tethered by stalled RNA polymerase
Could you please classify the records by Kd using these ranges: LOW: < 20 nM; MID: ≥ 20 nM and < 500 nM; HIGH: ≥ 500 nM

| binder | category |
| --- | --- |
| Eterna 5998949 (Sensor, turn-off variant 1) (ssRNA) RNA: UUUCCGGCGCGGGUUUUUUACAUGAGGAUCACCCAUGUCCUCUGCUUGUCUUGUCUUGGGCUUUUUUUGGGUUCGGG | HIGH |

Exercise: Class for Eterna 7692142 (Exclusion - FMN A) (ssRNA) RNA: UUAUAUACGAGUGAUGUUCGUUAUUUAUCAGAGGAUAUGCUUAAAUGCAGAAGGCUGUUUUUCUAUUUGAUAUUAAAUUUUAUAA ?
Solution: HIGH

Exercise: Class for Eterna 6121478 (Same State NG 1) (ssRNA) RNA: GCACUCAAGUUAGGAUAUGGAUCGGAAACCGAUCCAGAAGGAACACAAUAACAUGAGCAUCAGCCGUGUUCCAGAAACGAGUGC ?
Solution: MID

Exercise: Class for Eterna 6421601 (Exclusion NG 3) (ssRNA) RNA: GGUACUCAAAGAGUACCAAAACGAACAUGAGGAUCACCCAUGUAGGAUAUGCUACUCAAAGAGUAGCAGAAGGACAUGUGCCUA ?
Solution: LOW

Exercise: Class for Eterna 6447203 (Exclusion NG 2) (ssRNA) RNA: AUCAGCUCGUCAGGAUAUACGUAACUGCGUCAGCAGUGUGGUAAGAUCACAUGAGGAUCACCCAUGUAGAAGGGACGAGCUGAU ?
Solution: MID

Exercise: Class for Eterna 6443507 (Inverted Exclusion NG 1) (ssRNA) RNA: CGAACCAUGUAGAAGGCUGUCUUAAAAUAGGACAGAGGAUAUACAUGAGGAUCACCCAUGUACUCCUUUAAAAGGUUCGAAAUA ?
Solution: LOW

Exercise: Class for Eterna 6458016 (Inverted Same State NG 1) (ssRNA) RNA: CGCUACACCCAGAAGGACAUGAGGAUCACCCAUGUAGGAUAUGGGAGACACAGUCCCAUGUAGAGAAAUUACGCUAGUGUAGCG ?
Solution: MID

Exercise: Class for Eterna 1023 (Exclusion - FMN A) (ssRNA) RNA: GUCCAUGUCCUCAUUCGUGCACUGGACACCAAGGAUAUGUUUAUGGACAGAAGGUGGUUGGGUCAGUGAUGUUGAUAUAAUUAGU ?
Solution: HIGH

Exercise: Class for Eterna 9265 (Exclusion 1) (ssRNA) RNA: CCGUCACAUGAGGAUCACCCAUGUCAGGAUAUCUAUCAUAGCAUCGAAAGAUGCGGGUAGAGAAGGGACUAUCC ?
Solution: LOW

Exercise: Class for Eterna 6374082 (Exclusion NG 1) (ssRNA) RNA: CGGUGACGUGUAGGAUAUGGCGCUGGGUUUUGGCCAGAAGGACAUGAGGAUCACCCAUGUGGUAGAGGGCUGGCGGCCGCCCGU ?
Solution: LOW

Exercise: Class for Eterna 5988416 (Sensor, turn-off variant 1) (ssRNA) RNA: UCACAAGCUGUGGGUGGUGACAUGAGGAUCACCCAUGUUUUGCUCGUCUUGUGCCGGGCCCGGCGCCCGGGCCCGGC ?
Solution: HIGH

Exercise: Class for Eterna 6117498 (Same State NG 2) (ssRNA) RNA: AAAACAUACCGAGGAUAUUCAUAUAAUAAAUAAACAUGAGGAUCACCCAUUUGGCAAAAGCCUAGGGAGAAGGCGGAAUGCUAA ?
Solution: HIGH

Exercise: Class for Eterna 6407693 (Inverted Exclusion NG 2) (ssRNA) RNA: UCAGGCUUCGAGAAGGACAUGAAUCGUAGCAUUGCUACGAUGAAUUAUACAUGAGGAUCACCCAUGUAGGAUAUCGGAGUCUGC ?
Solution: LOW
